Reported EC50 by item:
Target: Peroxisome proliferator-activated receptor alpha (Homo sapiens)
Sequence (Q07869 whole entry): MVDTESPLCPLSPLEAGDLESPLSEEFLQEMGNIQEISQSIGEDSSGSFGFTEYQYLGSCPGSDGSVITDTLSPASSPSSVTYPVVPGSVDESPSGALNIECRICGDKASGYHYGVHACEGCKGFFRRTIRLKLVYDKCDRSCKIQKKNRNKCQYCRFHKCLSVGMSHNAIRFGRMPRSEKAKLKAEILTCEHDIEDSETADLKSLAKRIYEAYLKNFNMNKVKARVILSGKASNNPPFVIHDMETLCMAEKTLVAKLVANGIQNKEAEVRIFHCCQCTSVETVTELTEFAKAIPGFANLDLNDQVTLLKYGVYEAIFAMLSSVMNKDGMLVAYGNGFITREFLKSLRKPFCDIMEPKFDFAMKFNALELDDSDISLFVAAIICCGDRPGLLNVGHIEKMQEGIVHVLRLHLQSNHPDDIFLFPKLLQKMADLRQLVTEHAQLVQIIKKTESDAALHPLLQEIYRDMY
Assay: Agonist activity at PPARalpha by transactivation assay
Type: functional
Details: read-out: EC50

Consider the worked cases shown below.
| QUERY_SMILES | TGT | EC50 |
| --- | --- | --- |
| O=C(O)Cc1ccc(-c2noc(-c3ccccc3)c2COCCOc2ccc(Cl)cc2Cl)c(Cl)c1 | Peroxisome proliferator-activated receptor alpha (Homo sapiens) | > 10 µM |
| Cc1onc(-c2c(Cl)cccc2Cl)c1C(=O)OCCOc1ccc(C(F)(F)F)cc1[N+](=O)[O-] | Peroxisome proliferator-activated receptor alpha (Homo sapiens) | > 10 µM |

Input `O=C(O)Cc1ccc(-c2noc(-c3ccccc3)c2C(=O)CCCOc2ccc(Cl)cc2Cl)c(Cl)c1` , output reported EC50.
> 10 µM

Input `Cc1onc(-c2ccc(CC(=O)O)cc2Cl)c1C(=O)NCCOc1ccc(C(F)(F)F)cc1[N+](=O)[O-]` , output reported EC50.
0.34 µM

Input `CN(CCOc1ccc(Cl)cc1Cl)C(=O)c1c(-c2ccc(CC(=O)O)cc2Cl)noc1-c1ccccc1` , output reported EC50.
> 10 µM

Input `Cc1onc(-c2ccc(CC(=O)O)cc2Cl)c1C(=O)NCCOc1ccc(Cl)cc1Cl` , output reported EC50.
> 10 µM

Input `O=C(O)Cc1ccc(-c2noc(-c3ccccc3)c2C(=O)NCCOc2ccc(Cl)cc2Cl)c(Cl)c1` , output reported EC50.
> 10 µM

Input `Cc1onc(-c2ccc(CC(=O)O)cc2Cl)c1C(=O)NCCOc1ccc(C(F)(F)F)cc1` , output reported EC50.
> 10 µM

Input `Cc1onc(-c2ccc(CC(=O)O)cc2Cl)c1COCCOc1ccc(C(F)(F)F)cc1[N+](=O)[O-]` , output reported EC50.
0.22 µM

* * *

Molecular target: Peroxisome proliferator-activated receptor delta (Homo sapiens)
Sequence (Q03181 whole entry): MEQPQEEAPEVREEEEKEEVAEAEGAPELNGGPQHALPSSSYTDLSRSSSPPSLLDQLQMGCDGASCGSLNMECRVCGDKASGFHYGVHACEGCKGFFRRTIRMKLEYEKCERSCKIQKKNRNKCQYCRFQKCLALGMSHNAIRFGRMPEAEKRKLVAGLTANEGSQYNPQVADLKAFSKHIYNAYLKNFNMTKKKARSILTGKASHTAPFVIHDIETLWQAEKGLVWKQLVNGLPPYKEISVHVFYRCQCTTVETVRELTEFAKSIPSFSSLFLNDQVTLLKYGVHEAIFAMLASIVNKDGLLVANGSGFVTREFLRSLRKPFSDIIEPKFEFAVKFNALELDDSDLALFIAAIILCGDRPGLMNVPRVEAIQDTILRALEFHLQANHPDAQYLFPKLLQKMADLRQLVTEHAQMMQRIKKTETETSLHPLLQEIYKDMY
pEC50: −log10 of the molar value.
Outcome: met for pEC50 of at least 7; not met for anything lower.

Here are 4 compounds together with their reported answers.
| QUERY_SMILES | CLASS_NAME |
| --- | --- |
| Cc1onc(-c2ccc(CC(=O)O)cc2Cl)c1C(=O)NCCOc1ccc(C(F)(F)F)cc1C(F)(F)F | not met |
| O=C(O)Cc1ccc(-c2noc(-c3ccccc3)c2C(=O)CCCOc2ccc(Cl)cc2Cl)c(Cl)c1 | met |
| Cc1onc(-c2c(Cl)cccc2Cl)c1C(=O)OCCOc1ccc(C(F)(F)F)cc1[N+](=O)[O-] | not met |
| O=C(O)Cc1ccc(-c2noc(-c3ccco3)c2C(=O)NCCOc2ccc(Cl)cc2Cl)c(Cl)c1 | met |

Here is the next item to consider.
Please check the record `Cc1onc(-c2ccc(CC(=O)O)cc2Cl)c1C(=O)NCCOc1ccc(C(F)(F)F)cc1[N+](=O)[O-]` and state if its pEC50 is at or above 7.
met

* * *

Target: Peroxisome proliferator-activated receptor alpha (Homo sapiens)
Assay: Agonist activity at PPARalpha by transactivation assay
Format: functional
Details: read-out: EC50
pEC50: −log10 of the molar value.
Reported pEC50 by item:

Consider the worked cases shown below.
| QUERY_SMILES | pEC50 |
| --- | --- |
| CCc1onc(-c2ccc(CC(=O)O)cc2Cl)c1C(=O)NCCOc1ccc(Cl)cc1Cl | < 5.00 |
| Cc1onc(-c2ccc(CC(=O)O)cc2Cl)c1C(=O)NCCOc1ccc(C(F)(F)F)cc1C(F)(F)F | < 5.00 |
| CC(C)c1onc(-c2ccc(CC(=O)O)cc2Cl)c1C(=O)NCCOc1ccc(Cl)cc1Cl | 5.15 |
| CC(C)(C)c1onc(-c2ccc(CC(=O)O)cc2Cl)c1C(=O)NCCOc1ccc(Cl)cc1Cl | < 5.00 |
| O=C(O)Cc1ccc(-c2noc(C3CC3)c2C(=O)NCCOc2ccc(Cl)cc2Cl)c(Cl)c1 | 5.78 |
| Cc1onc(-c2ccc(CC(=O)O)cc2Cl)c1C(=O)NCCOc1ccccc1[N+](=O)[O-] | < 5.00 |

# assay system Peroxisome proliferator-activated receptor alpha (Homo sapiens): give pEC50 of `O=C(O)Cc1ccc(-c2noc(-c3ccco3)c2C(=O)NCCOc2ccc(Cl)cc2Cl)c(Cl)c1`
< 5.00
